The reported numbers originate from patent USRE39576E1.

Target: human iNOS (Homo sapiens)
Experiment: Inhibition of purified human iNOS ([14C]-L-arginine to citrulline conversion)
Type: biochemical
Design: made in house
Details: purified human iNOS, 30° C., 0.5 μM [14C]-L-arginine; read-out: Purified Human Enzyme Kd iNOS
recorded.metric: pKd
Answer as the number alone; pKd is minus log10 of concentration in mol/L.

Study these solved cases before continuing.
compound="CC(=N)NCC[S+]([O-])CC(N)C(=O)O (stereo not drawn)" test_system="human iNOS (Homo sapiens)" recorded_metric=pKd reading=5.04
compound="Br.Br.N=C(CF)NCCS(=O)(=O)CC(N)C(=O)O (stereo not drawn) [Example 1, dihydrobromide]" test_system="human iNOS (Homo sapiens)" recorded_metric=pKd reading=5.72

Moving on to another compound below.
Any idea what pKd was measured for CC(=N)NCCS(=O)(=O)CC(N)C(=O)O (stereo not drawn) ?
5.54
